This collection of values is drawn from ChEMBL document CHEMBL1201862.

system: NCI-H23; test: NCI tumour cell line growth inhibition, 48 h
Active and inactive are the calls of the source. Cut-off read from the data, not from the text of the source: active = GI50 up to about 1.1 µM and inactive = higher.
Please go through the items and note down their GI50.

(Q) For the molecule COc1ccc(/C(=N/O)c2ccccc2C2=Nc3ccccc3C(NCc3ccccc3)O2)cc1C (centres undefined) , what GI50 is on record?
(A) > 100 µM (inactive)

(Q) May I ask what GI50 has been recorded for O=C1c2ccccc2C(=O)N1C1(C(=O)NC2(C(=O)O)CCCC2)CCCC1 ?
(A) > 100 µM (inactive)

(Q) # get_value(readout='GI50', item= Nc1nc(N)nc(-c2ccccc2NS(=O)(=O)c2ccc([N+](=O)[O-])cc2)n1 )
(A) 37.2 µM (inactive)

(Q) // returns reported GI50 for input O=S(=O)(CC(O)C(Cl)(Cl)Cl)NNc1ccccc1 (centres undefined)
(A) > 100 µM (inactive)

(Q) Find the recorded GI50 belonging to COC(=O)[C@]1(CCC(C)=O)C(=O)C=CN([C@H](C)c2ccccc2)[C@@H]1Cc1ccc(OC)c(OCc2ccccc2)c1I and report it.
(A) 23.7 µM (inactive)

(Q) Need GI50, item Cc1ccc(/N=N/c2c(O)ccc3cc(S(=O)(=O)O)ccc23)c(C)c1
(A) > 100 µM (inactive)

(Q) So what's the measured GI50 for this one? CC(=O)OC1(C#N)CC2OC1C1N=NN(C(=O)OC(C)(C)C)C21 (centres undefined)
(A) > 10 µM (inactive)

(Q) Need GI50 of C1CNCCN2CCCNCCN(C1)CC2 , thanks.
(A) > 100 µM (inactive)

(Q) # lookup: GI50 of CC(O)C1CC1(CO)CNc1cc(Cl)nc(N)n1 (centres undefined)
(A) > 100 µM (inactive)
